Measurement Description: Stability after 21 days
Assay type: physicochemical
Condition Info: read-out: Stability
Value Kind: remaining at 504 h (%)
Kindly provide the numeric value in % only, without the unit symbol.

Query: Which remaining at 504 h is reported for this compound? "O=C(N/N=C/NNC(=O)c1ccncc1)c1ccncc1"
Result: 1

Query: GET /values?readout=remaining at 504 h&item= "O=C(/N=C/Nc1ccc(C(=O)O)c(O)c1)c1cnccn1"
Result: 0.1

Query: // returns reported remaining at 504 h for input "O=C(N/N=C\N1CCN(c2cc3c(cc2F)c(=O)c(C(=O)O)cn3C2CC2)CC1)c1ccncc1"
Result: 3

###

Exercise: for every item that follows, state its recorded remaining at 168 h.
Measurement Description: Stability after 7 days
Type: physicochemical
Condition Info: read-out: Stability

Query: If you can, please state the reported remaining at 168 h value of "O=C(N/N=C/NNC(=O)c1ccncc1)c1ccncc1" .
Result: 19%

Query: Find the recorded remaining at 168 h belonging to "O=C(N/N=C\N1CCN(c2cc3c(cc2F)c(=O)c(C(=O)O)cn3C2CC2)CC1)c1ccncc1" and report it.
Result: 30%

Query: GET /values?readout=remaining at 168 h&item= "O=C(/N=C/Nc1ccc(C(=O)O)c(O)c1)c1cnccn1"
Result: 10%

###

System: Mycobacterium avium
Measurement Description: Antimycobacterial activity against Mycobacterium avium 330/88 after 21 days
Format: functional
Condition Info: 504 h
For each of the compounds below, state its MIC.
The reply should be a number in µM, with the unit left off.

Query: Consider the compound shown here: "O=C(N/N=C\N1CCN(c2cc3c(cc2F)c(=O)c(C(=O)O)cn3C2CC2)CC1)c1ccncc1" What is its recorded MIC?
Result: 250

Query: Name the recorded MIC for CCC(CO)N1CCN(C(CC)CO)C1OS(=O)(=O)c1ccc(C)cc1 (stereo unspecified) .
Result: 1000

Query: Please look up its MIC: "O=C(N/N=C/Nc1ccc(C(=O)O)c(O)c1)c1ccncc1"
Result: 125

Query: Would you kindly share the measured MIC for "O=C(/N=C/Nc1ccc(C(=O)O)c(O)c1)c1cnccn1" ?
Result: 62.5

Query: // query MIC value for entry "O=C(/N=C/N1CCN(c2cc3c(cc2F)c(=O)c(C(=O)O)cn3C2CC2)CC1)c1cnccn1"
Result: 125

Query: Fill in the blank: the reported MIC of "O=C(NN/C=N/C(=O)c1cnccn1)c1ccncc1" is ____.
Result: 125

###

Please go through the items and note down their MIC.
System: Mycobacterium kansasii
Measurement Description: Antimycobacterial activity against Mycobacterium kansasii 6509/96 after 7 days
Format: functional
Condition Info: 168 h
Kindly provide the numeric value in µM only, without the unit symbol.

Query: So what does the record say about MIC for "O=C(/N=C/Nc1ccc(C(=O)O)c(O)c1)c1cnccn1" ?
Result: 8

Query: Field request: MIC | item: "O=C(N/N=C/NCc1ccccc1)c1ccncc1"
Result: 125

Query: Entry CCC(CO)N1CCN(C(CC)CO)C1OS(=O)(=O)c1ccc(C)cc1 (stereo not given) : reported MIC = ?
Result: 250

Query: Record request: MIC value, item "O=C(/N=C/N1CCN(c2cc3c(cc2F)c(=O)c(C(=O)O)cn3C2CC2)CC1)c1cnccn1"
Result: 2

Query: Requested read-out: MIC. Entry: "NNC(=O)c1ccncc1"
Result: 2

Query: // query MIC value for entry "O=C(N/N=C\N1CCN(c2cc3c(cc2F)c(=O)c(C(=O)O)cn3C2CC2)CC1)c1ccncc1"
Result: 2

Query: Quick one: MIC of "CN(C)/C=N/NC(=O)c1ccncc1" ?
Result: 125

Query: Tell me the measured MIC of "O=C(NN/C=N/C(=O)c1cnccn1)c1ccncc1" , please.
Result: 8

Query: MIC; subject: "O=C(N/N=C/NCc1ccccn1)c1ccncc1"
Result: 62.5

Query: Value lookup for MIC; key = "O=C(N/N=C/Nc1ccc(C(=O)O)c(O)c1)c1ccncc1"
Result: 125
